# assaySystem: T1, hEva1-mouse Fc (human, UniProt O60487 27-154, limits assumed)
# T1 construct: SPR analyte; the '1' is probably the first concentration (1 nM); also called hEva1-mouse Fc1 (so in the source); not shown: mouse Fc
# T1 sequence: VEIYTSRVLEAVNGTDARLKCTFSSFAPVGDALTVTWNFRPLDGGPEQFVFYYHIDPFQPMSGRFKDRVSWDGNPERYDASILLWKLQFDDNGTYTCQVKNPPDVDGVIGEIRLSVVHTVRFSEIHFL
# procedureDetails: SPR (BiaCore T200), single-cycle kinetics; antibody captured by anti-human IgG on CM5 chip, hEva1-mouse Fc as analyte
assayMetric: kon (M⁻¹ s⁻¹)
Kindly provide the numeric value in M⁻¹ s⁻¹ only, without the unit symbol.

As a guide, the following entries are already answered.
binder	uom	kon
humanized B2E5-48 antibody H2-L4 (antibody, human IgG1, V domains shown, Human IgG1 heavy chain and human kappa light chain vectors; made in HEK293T cells) VH: QVQLVQSGAEVKKPGASVKVSCKASGYTFTNYWMHWVRQAPGQGLEWMGEINPTNGGTDYNEKFQGRVTMTVDKSTSTAYMELSSLRSEDTAVYYCTIYTTALDYWGQGTLVTVSS VL: DIQLTQSPSFLSASVGDRVTITCRASSSVGYMYWYQQKPGKAPKPLIYVTSNLASGVPSRFSGSGSGTEYTLTISSLQPEDFATYYCQQWSSNPPTFGQGTKLEIK	M⁻¹ s⁻¹	17200
humanized B2E5-48 antibody H1-L4 (antibody, human IgG1, V domains shown, Human IgG1 heavy chain and human kappa light chain vectors; made in HEK293T cells) VH: QVQLVQSGAEVKKPGASVKVSCKASGYTFTNYWMHWVRQAPGQGLEWIGEINPTNGGTDYNEKFQGRVTLTVDKSSSTAYMELSSLRSEDTAVYYCTIYTTALDYWGQGTLVTVSS VL: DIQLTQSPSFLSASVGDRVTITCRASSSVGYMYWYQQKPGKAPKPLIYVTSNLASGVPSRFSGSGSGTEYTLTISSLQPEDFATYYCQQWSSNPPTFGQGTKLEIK	M⁻¹ s⁻¹	17500

Moving on to the next binder.
[in] Dear colleague, I am looking for the recorded kon of the following binder: humanized B2E5-48 antibody H3-L3 (antibody, human IgG1, V domains shown, Human IgG1 heavy chain and human kappa light chain vectors; made in HEK293T cells) VH: QVQLVQSGSELKKPGASVKVSCKASGYTFTNYWMHWVRQAPGQGLEWIGEINPTNGGTDYNEGFTGRFVLSVDKSSSTAYLQISSLKAEDTAVYYCTIYTTALDYWGQGTLVTVSS VL: QIQLTQSPSFLSASVGDRVTITCRASSSVGYMYWYQQKPGKAPKPLIYVTSNLASGVPSRFSGSGSGTEYTLTISSLQPEDFATYYCQQWSSNPPTFGQGTKLEIK
[out] 15000
